Source of measurements: patent US20230406850A1

assay: Solubility in DMSO and DMSO/water mixed solvents; type: physicochemical; conditions: aqueous with cosolvent or surfactant or cyclodextrin; DMSO/Water 1:2, RT

[
  {
    "compound": "COC(=O)N1CCO[C@@H](Cc2c(-c3c(F)cc(S(N)(=O)=O)cc3F)nc3cc(Cl)ccn23)C1 [Crystalline form III]",
    "Solubility": "~500 µg/mL"
  }
]

###

test: Pharmacokinetics of crystalline form III, fasting and non-fasting; format: in vivo, Beagle dog; settings: female, beagle, dog, plasma, po, 100 mg/kg, 100 mg/kg po, fast, plasma, female; read-out: AUC0-24 h

[
  {
    "compound": "COC(=O)N1CCO[C@@H](Cc2c(-c3c(F)cc(S(N)(=O)=O)cc3F)nc3cc(Cl)ccn23)C1 [Crystalline form III]",
    "AUC(0-t), ng·h/mL": 7540
  }
]

###

test: Pharmacokinetics of crystalline form III, fasting and non-fasting; assay type: in vivo, Beagle dog; conditions: male, beagle, dog, plasma, po, 100 mg/kg, 100 mg/kg po, fast
readout.name: Tmax (h)

[
  {
    "compound": "COC(=O)N1CCO[C@@H](Cc2c(-c3c(F)cc(S(N)(=O)=O)cc3F)nc3cc(Cl)ccn23)C1 [Crystalline form III]",
    "observed.measurement": 9
  }
]

###

experiment: Pharmacokinetics of crystalline form III, fasting and non-fasting; type: in vivo, Beagle dog; conditions: female, beagle, dog, plasma, po, 100 mg/kg, 100 mg/kg po, fast
readout.name: AUC(0-inf) (ng·h/mL)

[
  {
    "molecule": "COC(=O)N1CCO[C@@H](Cc2c(-c3c(F)cc(S(N)(=O)=O)cc3F)nc3cc(Cl)ccn23)C1 [Crystalline form III]",
    "observed.measurement": 9210
  }
]

###

test: Pharmacokinetics of crystalline form III, fasting and non-fasting; format: in vivo, Beagle dog; settings: female, beagle, dog, plasma, po, 100 mg/kg, 100 mg/kg po, Non-fast, plasma, female; read-out: AUC0-24 h

[
  {
    "compound": "COC(=O)N1CCO[C@@H](Cc2c(-c3c(F)cc(S(N)(=O)=O)cc3F)nc3cc(Cl)ccn23)C1 [Crystalline form III]",
    "measure.unit": "µg·h/mL",
    "AUC(0-t)": 378
  }
]

###

assay: Pharmacokinetics of crystalline form III, fasting and non-fasting; format: in vivo, Beagle dog; conditions: male, beagle, dog, whole blood, po, 100 mg/kg, 100 mg/kg po, Non-fast, blood
readout.name: Cmax

[
  {
    "molecule": "COC(=O)N1CCO[C@@H](Cc2c(-c3c(F)cc(S(N)(=O)=O)cc3F)nc3cc(Cl)ccn23)C1 [Crystalline form III]",
    "readout.name": "Cmax",
    "observed.measurement": "19000 ng/mL"
  }
]

###

assay: Pharmacokinetics of crystalline form III, fasting and non-fasting; type: in vivo, Beagle dog; settings: female, beagle, dog, whole blood, po, 100 mg/kg, 100 mg/kg po, Non-fast, blood

[
  {
    "compound": "COC(=O)N1CCO[C@@H](Cc2c(-c3c(F)cc(S(N)(=O)=O)cc3F)nc3cc(Cl)ccn23)C1 [Crystalline form III]",
    "AUC(0-inf)": "955 µg·h/mL"
  }
]

###

test: Pharmacokinetics of crystalline form III, fasting and non-fasting; assay type: in vivo, Beagle dog; conditions: male, beagle, dog, whole blood, po, 100 mg/kg, 100 mg/kg po, fast, blood

[
  {
    "molecule": "COC(=O)N1CCO[C@@H](Cc2c(-c3c(F)cc(S(N)(=O)=O)cc3F)nc3cc(Cl)ccn23)C1 [Crystalline form III]",
    "MRT last": "19.5 h"
  }
]

###

experiment: Pharmacokinetics of crystalline form III, fasting and non-fasting; format: in vivo, Beagle dog; settings: male, beagle, dog, whole blood, po, 100 mg/kg, 100 mg/kg po, fast, blood, male; read-out: AUClast
readout.name: AUC(0-t) (µg·h/mL)

[
  {
    "compound": "COC(=O)N1CCO[C@@H](Cc2c(-c3c(F)cc(S(N)(=O)=O)cc3F)nc3cc(Cl)ccn23)C1 [Crystalline form III]",
    "observed.measurement": 449
  }
]

###

assay: Pharmacokinetics of crystalline form III, fasting and non-fasting; assay type: in vivo, Beagle dog; details: male, beagle, dog, plasma, po, 100 mg/kg, 100 mg/kg po, fast
readout.name: AUC(0-inf) (µg·h/mL)

[
  {
    "molecule": "COC(=O)N1CCO[C@@H](Cc2c(-c3c(F)cc(S(N)(=O)=O)cc3F)nc3cc(Cl)ccn23)C1 [Crystalline form III]",
    "readout.name": "AUC(0-inf)",
    "observed.measurement": 40.2
  }
]

###

assay: Pharmacokinetics of crystalline form III, fasting and non-fasting; format: in vivo, Beagle dog; details: male, beagle, dog, whole blood, po, 100 mg/kg, 100 mg/kg po, Non-fast, blood

[
  {
    "compound": "COC(=O)N1CCO[C@@H](Cc2c(-c3c(F)cc(S(N)(=O)=O)cc3F)nc3cc(Cl)ccn23)C1 [Crystalline form III]",
    "half-life, min": 1710
  }
]

###

assay: Solubility in biological media SGF, FaSSIF and FeSSIF; type: physicochemical; conditions: FaSSIF, 37 °C, fassif, thermodynamic from solid, FaSSIF, 2 h, 37° C.; read-out: Solubility

[
  {
    "compound": "COC(=O)N1CCO[C@@H](Cc2c(-c3c(F)cc(S(N)(=O)=O)cc3F)nc3cc(Cl)ccn23)C1 [Crystalline form V]",
    "measure.unit": "µg/mL",
    "solubility at 2 h": 34
  }
]

###

assay: Pharmacokinetics of crystalline form III, fasting and non-fasting; format: in vivo, Beagle dog; settings: male, beagle, dog, plasma, po, 100 mg/kg, 100 mg/kg po, Non-fast, plasma, male; read-out: AUClast
readout.name: AUC(0-t) (µg·h/mL)

[
  {
    "compound": "COC(=O)N1CCO[C@@H](Cc2c(-c3c(F)cc(S(N)(=O)=O)cc3F)nc3cc(Cl)ccn23)C1 [Crystalline form III]",
    "observed.measurement": 366
  }
]

###

assay: Pharmacokinetics of crystalline form III, fasting and non-fasting; type: in vivo, Beagle dog; settings: female, beagle, dog, plasma, po, 100 mg/kg, 100 mg/kg po, Non-fast, plasma, female; read-out: AUClast
readout.name: AUC(0-t)

[
  {
    "compound": "COC(=O)N1CCO[C@@H](Cc2c(-c3c(F)cc(S(N)(=O)=O)cc3F)nc3cc(Cl)ccn23)C1 [Crystalline form III]",
    "observed.measurement": "465 µg·h/mL"
  }
]

###

test: Pharmacokinetics of crystalline form III, fasting and non-fasting; assay type: in vivo, Beagle dog; details: male, beagle, dog, plasma, po, 100 mg/kg, 100 mg/kg po, fast
readout.name: Cmax (ng/mL)

[
  {
    "compound": "COC(=O)N1CCO[C@@H](Cc2c(-c3c(F)cc(S(N)(=O)=O)cc3F)nc3cc(Cl)ccn23)C1 [Crystalline form III]",
    "readout.name": "Cmax",
    "observed.measurement": 5700
  }
]

###

assay: Pharmacokinetics of crystalline form III, fasting and non-fasting; type: in vivo, Beagle dog; details: female, beagle, dog, whole blood, po, 100 mg/kg, 100 mg/kg po, fast, blood

[
  {
    "compound": "COC(=O)N1CCO[C@@H](Cc2c(-c3c(F)cc(S(N)(=O)=O)cc3F)nc3cc(Cl)ccn23)C1 [Crystalline form III]",
    "AUC(0-inf) [µg·h/mL]": 242
  }
]

###

assay: Solubility in biological media SGF, FaSSIF and FeSSIF; type: physicochemical; settings: FeSSIF, 37 °C, fessif, thermodynamic from solid, FeSSIF, 0.5 h, 37° C.; read-out: Solubility
readout.name: solubility at 0.5 h (µg/mL)

[
  {
    "compound": "COC(=O)N1CCO[C@@H](Cc2c(-c3c(F)cc(S(N)(=O)=O)cc3F)nc3cc(Cl)ccn23)C1 [Crystalline form I]",
    "observed.measurement": 72
  }
]

###

test: Pharmacokinetics of crystalline form III, fasting and non-fasting; type: in vivo, Beagle dog; conditions: male, beagle, dog, whole blood, po, 100 mg/kg, 100 mg/kg po, Non-fast, blood

[
  {
    "compound": "COC(=O)N1CCO[C@@H](Cc2c(-c3c(F)cc(S(N)(=O)=O)cc3F)nc3cc(Cl)ccn23)C1 [Crystalline form III]",
    "AUC(0-inf) (µg·h/mL)": 818
  }
]

###

assay: Pharmacokinetics of crystalline form III, fasting and non-fasting; assay type: in vivo, Beagle dog; settings: female, beagle, dog, plasma, po, 100 mg/kg, 100 mg/kg po, Non-fast

[
  {
    "compound": "COC(=O)N1CCO[C@@H](Cc2c(-c3c(F)cc(S(N)(=O)=O)cc3F)nc3cc(Cl)ccn23)C1 [Crystalline form III]",
    "MRT last (h)": 12.6
  }
]
